tested target: T1, full-length human Regnase-1 with a FLAG tag on the N-terminal side and a biotin ligase BirA recognition … (human, UniProt Q5D1E8 1-599, biotinylated where required ; Biotinylated at the BirA recognition sequence where required. That sequence is not in the letters.)
T1 construct: Expressed in Expi293 cells, purified on FLAG M2 agarose and by gel filtration; also called full-length Regnase-1; human full-length Regnase-1
T1 sequence: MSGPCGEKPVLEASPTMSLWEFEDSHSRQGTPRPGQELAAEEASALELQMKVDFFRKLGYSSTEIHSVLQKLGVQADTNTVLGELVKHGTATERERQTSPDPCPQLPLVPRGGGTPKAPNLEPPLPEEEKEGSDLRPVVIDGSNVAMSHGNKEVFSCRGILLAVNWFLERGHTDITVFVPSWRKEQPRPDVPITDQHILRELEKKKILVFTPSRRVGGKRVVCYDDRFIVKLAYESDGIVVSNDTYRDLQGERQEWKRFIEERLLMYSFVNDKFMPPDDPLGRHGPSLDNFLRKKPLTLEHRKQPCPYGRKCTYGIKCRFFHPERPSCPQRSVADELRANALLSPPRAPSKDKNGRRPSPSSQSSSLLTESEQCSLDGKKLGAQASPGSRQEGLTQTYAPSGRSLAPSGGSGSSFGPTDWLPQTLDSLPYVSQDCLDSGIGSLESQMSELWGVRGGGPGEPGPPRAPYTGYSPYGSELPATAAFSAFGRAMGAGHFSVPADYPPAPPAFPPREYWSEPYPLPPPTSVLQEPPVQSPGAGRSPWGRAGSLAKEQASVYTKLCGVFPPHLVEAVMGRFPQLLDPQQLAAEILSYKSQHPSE
assay summary: AlphaScreen, blocks TBK1 binding to FL_Reg1
pIC50: −log10 of the molar value. Positions of bridges follow the written chain, without caps; N, C: chain ends. Non-standard residues stand in square brackets, D forms with d. No end group written: not given here. NMeA = CN[C@@H](C)C(=O)O; dNMeA = CN[C@H](C)C(=O)O
measured endpoint: pIC50

[dNMeA]SKYWNSWYNIWD (lactam N-13) [PP8]    5.19

A. [NMeA]NYQSWYYRSIWD (lactam N-13) [PP10]
B. [dNMeA]KHASAWYRIWD (lactam N-12) [PP3]
C. [NMeA]KFWIHHSFED (lactam N-11) [PP20]
D. [NMeA]YIWDFFGDLD (lactam N-11) [PP4]
Rank the 4 binders: largest pIC50 first, smallest last. The reply should contain the labels ordered as requested.
B, A, D, C
